test system: HEK-293T; experiment: Multiplex assay against HEK293T; format: toxicity, cell-based; settings: human, 48 h, 10 µM, compound concentration 10 uM, replicate 2
VALUE_TYPE: Population Membrane Permeable-Phenotype (%)
Answer format: numeric, % implied, no suffix.

// query Record lookup: for HEK-293T, what Population Membrane Permeable-Phenotype (%) belongs to C[C@@H](Oc1cc(-n2cnc3ccc(CN4CCN(C)CC4)cc32)sc1C(N)=O)c1ccccc1C(F)(F)F ?
// result 0

// query Record lookup: for HEK-293T, what Population Membrane Permeable-Phenotype (%) belongs to Cc1c(P(=S)(c2ccccc2)c2ccccc2)n2ccccc2[n+]1C/C=C/c1ccccc1.[Br-] ?
// result 9

// query Record lookup: for HEK-293T, what Population Membrane Permeable-Phenotype (%) belongs to c1ccc(-c2oc3ncnc(NC[C@@H]4CCCO4)c3c2-c2ccccc2)cc1 ?
// result 19

====

test system: HEK-293T; test: Multiplex assay against HEK293T; format: toxicity, cell-based; conditions: human, 48 h, 1 µM, compound concentration 1 uM, replicate 2
VALUE_TYPE: Population Normal (%)
Answer format: numeric, % implied, no suffix.

// query Look at this molecule and give its reported Population Normal (%). CC(C)c1cc(Nc2nc(N3CCC[C@H](N)C3)ncc2C(N)=O)cc(C(C)C)n1
// result 92

// query Look at this molecule and give its reported Population Normal (%). CCCCCNC(=N)N/N=C/c1c[nH]c2ccc(OC)cc12.O=C(O)/C=C\C(=O)O [TEGASEROD MALEATE]
// result 95

// query Look at this molecule and give its reported Population Normal (%). C[C@@H](Oc1cc(-n2cnc3ccc(CN4CCN(C)CC4)cc32)sc1C(N)=O)c1ccccc1C(F)(F)F
// result 97

// query Look at this molecule and give its reported Population Normal (%). CC(/C=C1\SC(=S)N(CCCC(=O)Nc2ccc(C(=O)O)c(O)c2)C1=O)=C\c1ccccc1
// result 96

// query Look at this molecule and give its reported Population Normal (%). C=CC(=O)Nc1cc(-n2c(=O)ccc3cnc4ccc(-c5ccc(NS(C)(=O)=O)cc5)cc4c32)ccc1C
// result 93

// query Look at this molecule and give its reported Population Normal (%). CN(c1cc(C(F)(F)F)nc(OCCC(=O)O)n1)c1cccc2c1CCC2
// result 96

// query Look at this molecule and give its reported Population Normal (%). CC(C)[C@H](CO)Nc1nc(Nc2cccc(Cl)c2)c2ncn(C(C)C)c2n1
// result 95

// query Look at this molecule and give its reported Population Normal (%). Cl.NC[C@@H]1O[C@H](C23CC4CC(CC(C4)C2)C3)Cc2c1ccc(O)c2O
// result 98

// query Look at this molecule and give its reported Population Normal (%). CN1C(=O)[C@@H](NC(=O)c2cc3ccccc3[nH]2)N=C(c2ccccc2)c2ccccc21 [DEVAZEPIDE]
// result 95

// query Look at this molecule and give its reported Population Normal (%). CC(Cc1ccc(O)c(O)c1)C(C)Cc1ccc(O)c(O)c1 (configuration not stated) [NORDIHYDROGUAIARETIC ACID]
// result 94

// query Look at this molecule and give its reported Population Normal (%). CCCc1cc(C)[nH]c(=O)c1CNC(=O)c1cc(-c2ccc(N3CCN(C(C)C)CC3)nc2)cc2c1cnn2C(C)C
// result 97

// query Look at this molecule and give its reported Population Normal (%). N#Cc1cccc(C(=O)Nc2cc(-c3ccccc3)nn2-c2ccccc2)c1
// result 95

// query Look at this molecule and give its reported Population Normal (%). Cc1c(P(=S)(c2ccccc2)c2ccccc2)n2ccccc2[n+]1C/C=C/c1ccccc1.[Br-]
// result 91

// query Look at this molecule and give its reported Population Normal (%). Cc1ccc(S(=O)(=O)NC2c3ccccc3Oc3ccccc32)cc1
// result 96

// query Look at this molecule and give its reported Population Normal (%). N#CCNC(=O)c1ccc(-c2ccnc(Nc3ccc(N4CCOCC4)cc3)n2)cc1
// result 96

// query Look at this molecule and give its reported Population Normal (%). CCCCN(CC)c1nc(C)nc2c1c(C)cn2-c1c(C)cc(C)cc1C.Cl
// result 96

// query Look at this molecule and give its reported Population Normal (%). Oc1cccc(-c2nc(N3CCOCC3)c3oc4ncccc4c3n2)c1
// result 85

====

Give measured Population Membrane Permeable-Phenotype (%) for each item. Keep answers brief.
tested on: Fibroblast; assay: Multiplex assay against human fibroblast; format: toxicity, cell-based; conditions: 24 h, 10 µM, compound concentration 10 uM, replicate 2
Answer format: numeric, % implied, no suffix.

// query Look at this compound and give its reported Population Membrane Permeable-Phenotype (%). Cl.NC[C@@H]1O[C@H](C23CC4CC(CC(C4)C2)C3)Cc2c1ccc(O)c2O
// result 26

// query Look at this compound and give its reported Population Membrane Permeable-Phenotype (%). Cc1c(P(=S)(c2ccccc2)c2ccccc2)n2ccccc2[n+]1C/C=C/c1ccccc1.[Br-]
// result 81

// query Look at this compound and give its reported Population Membrane Permeable-Phenotype (%). CC(C)c1cc(Nc2nc(N3CCC[C@H](N)C3)ncc2C(N)=O)cc(C(C)C)n1
// result 100

// query Look at this compound and give its reported Population Membrane Permeable-Phenotype (%). CC[C@@]1(O)C(=O)OCc2c1cc1n(c2=O)Cc2cc3ccccc3nc2-1 [CAMPTOTHECIN]
// result 0

// query Look at this compound and give its reported Population Membrane Permeable-Phenotype (%). CCOC(=O)CCNc1cc(N2CCc3ccccc3CC2)nc(-c2ccccn2)n1
// result 11

// query Look at this compound and give its reported Population Membrane Permeable-Phenotype (%). CCOc1ccn(-c2ccc(F)cc2)c(=O)c1C(=O)Nc1ccc(Oc2ccnc(N)c2Cl)c(F)c1 [BMS-777607]
// result 5

// query Look at this compound and give its reported Population Membrane Permeable-Phenotype (%). CC(/C=C1\SC(=S)N(CCCC(=O)Nc2ccc(C(=O)O)c(O)c2)C1=O)=C\c1ccccc1
// result 5

// query Look at this compound and give its reported Population Membrane Permeable-Phenotype (%). Cc1c(Nc2ccc(S(=O)(=O)N3CCN(C)CC3)cc2F)nc2ccc(Nc3cnn(C4CC4)c3)cn2c1=O
// result 9

// query Look at this compound and give its reported Population Membrane Permeable-Phenotype (%). Cc1ccc(S(=O)(=O)NC2c3ccccc3Oc3ccccc32)cc1
// result 20

// query Look at this compound and give its reported Population Membrane Permeable-Phenotype (%). CC[C@@H]1C(=O)N(C)c2cnc(Nc3ccc(C(=O)NC4CCN(C)CC4)cc3OC)nc2N1C1CCCC1 [BI-2536]
// result 0

// query Look at this compound and give its reported Population Membrane Permeable-Phenotype (%). Cl.Cn1c2c(c3ccc(Cl)c(Cl)c31)C(C#N)C1(CCNCC1)NC2=O (stereo not drawn)
// result 9

// query Look at this compound and give its reported Population Membrane Permeable-Phenotype (%). CCCc1cc(C)[nH]c(=O)c1CNC(=O)c1cc(-c2ccc(N3CCN(C(C)C)CC3)nc2)cc2c1cnn2C(C)C
// result 85

// query Look at this compound and give its reported Population Membrane Permeable-Phenotype (%). CN(c1cc(C(F)(F)F)nc(OCCC(=O)O)n1)c1cccc2c1CCC2
// result 3

// query Look at this compound and give its reported Population Membrane Permeable-Phenotype (%). CC[C@H](Nc1ncnc2[nH]cnc12)c1nc2cccc(F)c2c(=O)n1-c1ccccc1 [IDELALISIB]
// result 26

// query Look at this compound and give its reported Population Membrane Permeable-Phenotype (%). Cc1ccc(NC(=O)Nc2cc(C(F)(F)F)ccc2F)cc1Nc1ccc2c(c1)NC(=O)/C2=C\c1ccc[nH]1
// result 0

// query Look at this compound and give its reported Population Membrane Permeable-Phenotype (%). Oc1cccc(-c2nc(N3CCOCC3)c3oc4ncccc4c3n2)c1 [PI-103]
// result 44

// query Look at this compound and give its reported Population Membrane Permeable-Phenotype (%). CCCCCNC(=N)N/N=C/c1c[nH]c2ccc(OC)cc12.O=C(O)/C=C\C(=O)O [TEGASEROD MALEATE]
// result 100

====

test system: U2OS; assay: Multiplex assay against U2OS; assay type: toxicity, cell-based; conditions: human, 12 h, 10 µM, compound concentration 10 uM, replicate 1
Give measured Population Normal (%) for each item. Keep answers brief.
Answer format: numeric, % implied, no suffix.

// query Look at this compound and give its reported Population Normal (%). C[C@@H](Oc1cc(-n2cnc3ccc(CN4CCN(C)CC4)cc32)sc1C(N)=O)c1ccccc1C(F)(F)F
// result 90

// query Look at this compound and give its reported Population Normal (%). CN1C(=O)[C@@H](NC(=O)c2cc3ccccc3[nH]2)N=C(c2ccccc2)c2ccccc21 [DEVAZEPIDE]
// result 93

// query Look at this compound and give its reported Population Normal (%). Cc1ccc(S(=O)(=O)NC2c3ccccc3Oc3ccccc32)cc1
// result 92

// query Look at this compound and give its reported Population Normal (%). CC[C@@]1(O)C(=O)OCc2c1cc1n(c2=O)Cc2cc3ccccc3nc2-1
// result 93

// query Look at this compound and give its reported Population Normal (%). CCOC(=O)CCNc1cc(N2CCc3ccccc3CC2)nc(-c2ccccn2)n1
// result 94
